B1: TPR 5TU (parent)
chain: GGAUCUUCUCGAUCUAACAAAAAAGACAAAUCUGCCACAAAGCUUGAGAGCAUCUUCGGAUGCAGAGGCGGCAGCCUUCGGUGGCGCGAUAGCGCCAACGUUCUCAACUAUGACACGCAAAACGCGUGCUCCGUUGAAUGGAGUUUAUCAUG

variants of: B1; experiment: polymerase ribozyme fitness, log enrichment relative to wild type (log ratio); higher = more active; in vitro selection for triplet polymerase activity
Fewer inactive variants are shown than the library holds.
We use -1 as the dividing line for polymerase ribozyme fitness (log ratio): on or above the line is true, below is false.

{"columns": ["mutationAnnotation", "discreteLabel"],
 "data": [
  ["U15C A26U C57G G59U C87A G88A A107U U148G", "false"],
  ["C18G A60C G84U C125U", "false"],
  ["U45C A119C", "true"],
  ["A30G C57A", "false"],
  ["C54A U144G", "true"],
  ["A19U C85A", "false"],
  ["C69A A73G", "false"],
  ["C8G G84U", "false"],
  ["C79A A91U A107C G124C U144C", "false"],
  ["G92U U101G", "true"],
  ["G88C C105G G128C A142C", "false"],
  ["U13A C38U G83C G140A", "false"],
  ["A22C A39C U55A U102G C129U", "false"],
  ["A3C C27U C35G C57A G84A C87U", "false"],
  ["U56A C87A C105G G128C", "false"],
  ["A28U A29G C75G G81U C85G A106C C129A", "false"],
  ["G58A G100U", "false"],
  ["C87A C123A A150U", "false"],
  ["C10A C32G U44G C57U U82G G83A", "false"],
  ["A3G C14G U61G G71A G86C A91C C105G C114G G143A U145A", "false"],
  ["G83C G126U", "true"],
  ["A21U C96G", "true"]
]}
